Hey, just so you know, these numbers are from patent US10072023B2.

experiment: Absorbance at photostationary state (PSS) under simulated sunlight or 365 nm light
Format: physicochemical
experimentalParameters: simulated sunlight with UV blocking film (cutoff 370 nm); 2.0×10^−5 M in triglyme
measuredQuantity: Absorbance at PSS, +UV
Lab note: write the figure by itself, no unit.

Here is how some compounds turned out for Absorbance at PSS, +UV.
>>> numericresult("Cc1cc(-c2sc(-c3sc(C)c(C)c3C)cc2C2=C(c3cc(-c4sc(C)c(C)c4C)sc3-c3cc(C)c(C)s3)C(F)(F)C(F)(F)C2(F)F)sc1C")
0.092
>>> numericresult("CC(C)(C)c1ccc(-c2sc(-c3cccs3)cc2C2=C(c3cc(-c4cccs4)sc3-c3ccc(C(C)(C)C)cc3)C(F)(F)C(F)(F)C2(F)F)cc1")
0.116
>>> numericresult("COc1ccc(-c2cc(C3=C(c4cc(-c5ccc(C#N)cc5)sc4-c4ccc(OC)cc4)C(F)(F)C(F)(F)C3(F)F)c(-c3ccc(C#N)cc3)s2)cc1")
0.055
>>> numericresult("CCOCCOCCOCCOC(CC)(CC)c1ccc(-c2sc(-c3ccc(C(C)(C)C)s3)cc2C2=C(c3cc(-c4ccc(C(C)(C)C)s4)sc3-c3ccc(C(CC)(CC)OCCOCCOCCOCC)s3)C(F)(F)C(F)(F)C2(F)F)s1")
0.224

Consider the additional compound presented here.
Q. Look up Absorbance at PSS, +UV: `Cc1ccc(-c2oc3ccccc3c2C2=C(c3c(-c4ccc(C)s4)oc4ccccc34)C(F)(F)C(F)(F)C2(F)F)s1`
A. 0.016
